test system: Mus musculus; experiment: Anticonvulsant activity in ip dosed Mus musculus albino (mouse) assessed as protection against maximal electroshock-induced seizures measured at 0.5 hr; format: functional; details: read-out: MED
Measured Parameter: minimal effective dose (mg/kg)
Give just the number in mg/kg; leave the unit off.

The cases that follow already have their minimal effective dose on record.
* CN(C)c1ccc(-c2nnc(-n3c(/C=C/c4ccc(Cl)cc4)nc4ccccc4c3=O)o2)cc1 | 100
* O=C1NC(=O)C(c2ccccc2)(c2ccccc2)N1 | 30
* Cc1ccc(/C=C/c2nc3ccccc3c(=O)n2-c2nnc(-c3ccc(Cl)cc3)o2)cc1 | 300

# next compound below
Notebook entry, Mus musculus assay: minimal effective dose of NC(=O)N1c2ccccc2C=Cc2ccccc21 [CARBAMAZEPINE] = ? 30

----------
system: Mus musculus; test: Neurotoxicity in Mus musculus albino (mouse) assessed as minimal motor impairment at 300 mg/kg, ip measured at 0.5 hr; format: toxicity, organism-based; design: dose 300 mg/kg, route intraperitoneal; conditions: in vivo
Measured Parameter: Activity

- COc1ccc(-c2nnc(-n3c(/C=C/c4ccc(Cl)cc4)nc4ccccc4c3=O)o2)cc1: Non-toxic
- Cc1ccc(-c2nnc(-n3c(/C=C/c4ccccc4)nc4ccccc4c3=O)o2)cc1: Non-toxic
- CCCC(CCC)C(=O)[O-].[Na+] [VALPROATE SODIUM]: Non-toxic

----------
test system: Mus musculus; test: Neurotoxicity in ip dosed Mus musculus albino (mouse) assessed as minimal motor impairment measured at 0.5 hr; assay type: toxicity, organism-based; details: in vivo
Measured Parameter: MTC (mg/kg)
Give just the number in mg/kg; leave the unit off.

The cases that follow already have their MTC on record.
- Cc1ccc(/C=C/c2nc3ccccc3c(=O)n2-c2nnc(-c3ccc(N(C)C)cc3)o2)cc1: 100
- COc1ccc(-c2nnc(-n3c(/C=C/c4ccccc4)nc4ccccc4c3=O)o2)cc1: 300
- CN(C)c1ccc(-c2nnc(-n3c(/C=C/c4ccc(Cl)cc4)nc4ccccc4c3=O)o2)cc1: 100
- O=C1NC(=O)C(c2ccccc2)(c2ccccc2)N1: 100

Please report the recorded MTC for O=c1c2ccccc2nc(/C=C/c2ccc(Cl)cc2)n1-c1nnc(-c2ccc(Cl)cc2)o1 . 100

Please report the recorded MTC for NC(=O)N1c2ccccc2C=Cc2ccccc21 [CARBAMAZEPINE] . 100

----------
test system: Mus musculus; experiment: Neurotoxicity in Mus musculus albino (mouse) assessed as minimal motor impairment at 300 mg/kg, ip measured at 4 hr; type: toxicity, organism-based; design: dose 300 mg/kg, route intraperitoneal; details: in vivo
Measured Parameter: Activity

The cases that follow already have their Activity on record.
• O=c1c2ccccc2nc(/C=C/c2ccccc2)n1-c1nnc(-c2ccc(Cl)cc2)o1 = Non-toxic
• COc1ccc(-c2nnc(-n3c(/C=C/c4ccccc4)nc4ccccc4c3=O)o2)cc1 = Non-toxic
• Cc1ccc(/C=C/c2nc3ccccc3c(=O)n2-c2nnc(-c3ccc(Cl)cc3)o2)cc1 = Non-toxic
• Cc1ccc(-c2nnc(-n3c(/C=C/c4ccccc4)nc4ccccc4c3=O)o2)cc1 = Non-toxic
• Cc1ccc(/C=C/c2nc3ccccc3c(=O)n2-c2nnc(-c3ccc(C)cc3)o2)cc1 = Non-toxic

Notebook entry, Mus musculus assay: Activity of CN(C)c1ccc(-c2nnc(-n3c(/C=C/c4ccccc4)nc4ccccc4c3=O)o2)cc1 = ? Non-toxic
